The measurements presented in this section are drawn from patent US20240246960A1.

Assay: Pharmacokinetic study in dogs (IV, PO)
Type: in vivo, Beagle dogs
Conditions: male, Beagle; Table C; Dog Plasma; PO; 10 mg/kg
OBSERVED PROPERTY: half-life (h)
Use h as the unit, but write only the number.

Give the reported value of half-life for this record: O=C(N[C@H]1CC[C@@H](Oc2nc(N3CCOCC3)cc3ncccc23)CC1)c1ncccn1
6.03

----------
Experiment: Pharmacokinetic study in dogs (IV, PO)
Assay type: in vivo, Beagle dogs
Conditions: male, Beagle; Table C; Dog Plasma; PO; 10 mg/kg
OBSERVED PROPERTY: Cmax at 5 min (ng/mL)
Give just the numeric value; ng/mL need not be written.

For O=C(N[C@H]1CC[C@@H](Oc2nc(N3CCOCC3)cc3ncccc23)CC1)c1ncccn1 [Compound 123] , write its Cmax at 5 min.
2970
